Item-by-item account of relative binding affinity (RBA)
target: UniProt:P04278; experiment: Displacement of [3H]DHT from human SHBG relative to testosterone
Sequence (P04278 whole entry): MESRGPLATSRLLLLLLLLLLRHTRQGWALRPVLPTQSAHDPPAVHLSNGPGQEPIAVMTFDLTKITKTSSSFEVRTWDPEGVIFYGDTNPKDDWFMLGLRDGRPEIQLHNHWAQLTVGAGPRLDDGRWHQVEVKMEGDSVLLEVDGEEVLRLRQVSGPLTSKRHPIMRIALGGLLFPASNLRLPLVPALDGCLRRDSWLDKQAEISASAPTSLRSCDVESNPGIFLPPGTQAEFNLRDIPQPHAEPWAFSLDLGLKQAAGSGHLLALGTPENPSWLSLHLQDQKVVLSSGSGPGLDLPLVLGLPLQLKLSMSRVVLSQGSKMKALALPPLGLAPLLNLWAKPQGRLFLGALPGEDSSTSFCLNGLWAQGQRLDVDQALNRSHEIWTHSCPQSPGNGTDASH

>>> experimental_result("CCC(c1ccc(O)c(O)c1)C(CC)c1ccc(O)c(F)c1 (stereo not given)")
714
>>> experimental_result("C[C@]12CC[C@@H]3c4ccc(O)cc4CC[C@H]3[C@@H]1CC[C@@H]2O")
3.5

What measured relative binding affinity (RBA) goes with Cc1cc(Cc2cc(C)c(O)c(CO)c2)cc(CO)c1O ? 3330

What measured relative binding affinity (RBA) goes with CCCC1c2ccc(O)cc2CC1c1ccc(O)cc1 (stereo not given) ? 768

What measured relative binding affinity (RBA) goes with CC12CCNC(=O)C=C1CCC1C2CCC2(C)C(O)CCC12 (stereo not given) ? 66
